measurement-target: Hexose transporter 1 (Plasmodium falciparum)
run-description: ST_JUDE_LEISH: Cytotoxicity at 2uM final concentration against transgenic Leishmania Mexicana promastigotes LmPfHT that are glucose transport deficient and complemented with the Plasmodium falciparum hexose transporter. Activity is measured by DNA content using SYBR green in vitro
Assay type: functional
endpoint-name: inhibition (%)
Note: unit % is implicit; provide only the numeric part.

Known inhibition results, listed for orientation:
>>> data_value("Nc1nc(N)c2c(ccc3c2ccn3CCCC(F)(F)F)n1")
20.3
>>> data_value("O=C(/C=C/c1ccsc1)N1CCC(CCN2CCC(c3c[nH]c4ccccc34)CC2)CC1")
3.57
>>> data_value("COc1ccc(CCNC(=O)c2cc3c(=O)n4cccc(C)c4nc3n(C)c2=N)cc1")
10.1
>>> data_value("Oc1ccc(CCNCCCCCCNCCc2ccc(Cl)cc2)c(Cl)c1O")
-4.06

Kindly consider the entry below.
For CN(C)CCCN1C(=O)c2[nH]nc(-c3ccc(Cl)cc3O)c2C1c1ccc(Cl)cc1 (stereo not given) the compound record lists inhibition as 0.66

----------
measurement-target: Hexose transporter 1 (Plasmodium falciparum)
run-description: ST_JUDE_LEISH: Cytotoxicity at 2uM final concentration against transgenic Leishmania Mexicana promastigotes LmPfHT that are glucose transport deficient and complemented with the Plasmodium falciparum hexose transporter. Activity is measured by DNA content using SYBR green in vitro
Format: functional
endpoint-name: inhibition (%)
Reply with just the number (in %).

>>> data_value("O=C(c1cnn(-c2ccccc2)c1C(F)(F)F)N1CCN(c2ccnc3cc(Cl)ccc23)CC1")
1.39

// inhibition lookup, compound = CCC1CN2CCc3c([nH]c4ccccc34)C2CC1CC1=NCCc2c1[nH]c1ccccc21 (centres undefined) , result: 3.33

Notebook: `COc1cc(C=CC(=O)N2CCC3(CC2)CC(=O)c2ccccc2O3)cc(OC)c1OC` , inhibition read as 2.09

According to the records, this compound `CS(=O)(=O)N(c1ccc(F)cc1)c1cc(C(=O)N[C@@H](Cc2ccccc2)[C@H](O)CNCc2cccc(C(F)(F)F)c2)cc(N2CCCC2=O)c1` displays inhibition of -0.54

----------
Each entry below lists one item and its recorded inhibition value.
measurement-target: Glucose transporter (Leishmania mexicana) (UniProt O61059)
run-description: ST_JUDE_LEISH: Cytotoxicity at 2uM final concentration against transgenic Leishmania Mexicana promastigotes LmGT2 that are glucose transport deficient and complemented with the L. Mexicana glucose transporter 2. Activity is measured by DNA content using SYBR green in vitro
Format: functional
Just so you know, I need the unit written after the number.

Recorded inhibition, per entry:
>>> data_value("Cc1nc2ccc3ccc(CNc4ccc5c(c4)CN([C@@H](CCC(=O)O)C(=O)O)C5=O)cc3c2c(=O)[nH]1")
"-1.52%"
>>> data_value("O=C(Nc1ccc2c(c1)CCC2)c1cccc(N2CCN(c3ccncc3)CC2)c1")
"1.58%"
>>> data_value("CC(C)(C)c1ccc(CNC(=O)c2cc(CNC3CCC(N)CC3)ccc2O)cc1 (centres undefined)")
"0.99%"
>>> data_value("CCc1cn2c3c(cc(C(=O)N[C@@H](Cc4ccccc4)[C@H](O)CNC4CCCC4)cc13)N(C)S(=O)(=O)CC2")
"5.93%"
>>> data_value("CC(C)CCNc1nc(NCc2ccccc2)c2cc(O)ccc2n1")
"1.03%"
>>> data_value("O=C(NCCc1ccccc1)N(Cc1ccccc1-c1ccc(CNCCc2ccccc2)cc1)C1CCN(Cc2ccccc2)CC1")
"3.55%"
>>> data_value("CCNc1cc(C(=O)N[C@@H](Cc2ccccc2)[C@H](O)CNC(CC)c2cccc(Cl)c2)cc(N2CCCCS2(=O)=O)c1 (some centres undefined)")
"-0.27%"
>>> data_value("O=[N+]([O-])c1cccc(-c2nc(-c3ccc(Br)cc3)[nH]c2-c2ccc(Br)cc2)c1")
"1.57%"

Here's the next entry for you.
get_value(item= `Cc1cnc(C(=O)Nc2cccc(-c3csc(-c4nc5ccccc5[nH]4)c3)c2)cn1` , readout=inhibition) returns 3.93%

Where do these numbers come from? They come from ChEMBL document CHEMBL3433997.
